- System: cocklebur
- Protocol Description: Test B preemergence/postemergence greenhouse plant response rating 0 to 10
- Format: in vivo, Xanthium pensylvanicum
- Condition Info: Rate 200 g/ha, POSTEMERGENCE; 0 to 10 scale
Result Type: Plant response rating, Cocklebur

In [3]: df
Out[3]:
                               query_smiles  measured
0        Oc1cc(-c2nn3c(c2Br)CCCC3)c(F)cc1Cl        10
1  CCOC(=O)c1cc(-c2nn3c(c2Cl)CCCC3)c(F)cc1Cl        10
2  CCOC(=O)COc1cc(-c2nn3c(c2Cl)CCCC3)c(Cl)cc1Cl        10
3    CCOCOc1cc(-c2nn3c(c2Cl)CCCC3)c(F)cc1Cl        10
4   O=C1COc2cc(F)c(-c3nn4c(c3Br)CCCC4)cc2N1        10

Kindly review the next compound as well.
[ask] Give me measured Plant response rating, Cocklebur, please, for this compound: `CC(C)Oc1cc(-c2nn3c(c2Cl)CCCC3)c(Cl)cc1Cl`
[reply] 8

---

- Test system: morningglory
- Protocol Description: Test C preemergence/postemergence greenhouse plant response rating 0 to 100
- Assay type: in vivo, Ipomoea hederacea
- Condition Info: Rate 16 g/ha; POSTEMERGENCE
Result Type: Plant response rating (0 to 100), Morningglory
Please respond with just the number, no unit label.

Previously resolved entries follow.
In [3]: df
Out[3]:
                               query_smiles  measured
0    C#CCOc1cc(-c2nn3c(c2Br)CCCC3)c(F)cc1Cl        70
1       COc1cc(-c2nn3c(c2Cl)CCCC3)c(F)cc1Cl        80
2  C#CCN1C(=O)COc2cc(F)c(-c3nn4c(c3Cl)CCCC4)cc21       100
3   CC(C)Oc1cc(-c2nn3c(c2Br)CCCC3)c(F)cc1Cl        95
4  COCN1C(=O)COc2cc(F)c(-c3nn4c(c3Cl)CCCC4)cc21       100

// switching to the query molecule
[ask] Please supply the value of reported Plant response rating (0 to 100), Morningglory for the item `C#CCN1C(=O)COc2cc(F)c(-c3nn4c(c3Br)CCCC4)cc21`
[reply] 100

---

- Tested on: rape
- Protocol Description: Test B preemergence/postemergence greenhouse plant response rating 0 to 10
- Format: in vivo, Brassica napus
- Condition Info: PREEMERGENCE, Rate 200 g/ha
// reported Plant response rating (0 to 10 scale), Rape per item
Answer with a bare number; do not write a unit.

Examples from the recorded data:
>>> print(df.to_string())
                               query_smiles  target_entity  measured
0        Oc1cc(-c2nn3c(c2Br)CCCC3)c(F)cc1Cl           rape         7
1   COCCOc1cc(-c2nn3c(c2Cl)CCCC3)c(Cl)cc1Cl           rape         6
2  CC(C)(C)C(=O)COc1cc(-c2nn3c(c2Cl)CCCC3)c(Cl)cc1Cl           rape         6
3  CC(C)Oc1cc(-c2nn3c(c2Cl)CCCC3)c(Cl)cc1Cl           rape         3
4   C=CCOc1cc(-c2nn3c(c2Cl)CCCC3)c(Cl)cc1Cl           rape         3

[ask] Give Plant response rating (0 to 10 scale), Rape for `CCOC(=O)c1cc(-c2nn3c(c2Cl)CCCC3)c(F)cc1Cl` tested on rape.
[reply] 9

[ask] State Plant response rating (0 to 10 scale), Rape (rape) of `Clc1cc(Cl)c(-c2nn3c(c2Cl)CCCC3)cc1OCC1CC1` .
[reply] 3

---

- Test system: velvetleaf
- Protocol Description: Test B preemergence/postemergence greenhouse plant response rating 0 to 10
- Format: in vivo, Abutilon theophrasti
- Condition Info: PREEMERGENCE, Rate 50 g/ha; 0 to 10 scale
Result Type: Plant response rating, Velvetleaf
// no unit, no text: just the number

A selection of reference data follows.
>>> print(df.to_string())
                                   molecule  measured
0  C#CC(C)Oc1cc(-c2nn3c(c2Br)CCCC3)c(F)cc1Cl (stereo not drawn)         6
1       Clc1ccc(-c2nc3n(c2Cl)CCC=C3)c(Cl)c1         0

Could you now look at the following molecule, please?
[ask] Hello, please tell me recorded Plant response rating, Velvetleaf for this one: `CC(C)OC(=O)COc1cc(-c2nn3c(c2Br)CCCC3)c(F)cc1Cl`
[reply] 3

---

Some compounds, each annotated with its measured Plant response rating, Cotton.
- Test system: cotton
- Protocol Description: Test B preemergence/postemergence greenhouse plant response rating 0 to 10
- Assay type: in vivo, Gossypium hirsutum
- Condition Info: PREEMERGENCE, Rate 50 g/ha; 0 to 10 scale
Just the number, please, no unit attached.

                                   compound                    result_type  measured
0  CC(C)COc1cc(-c2nn3c(c2Cl)CCCC3)c(F)cc1Cl  Plant response rating, Cotton         2

[ask] # return recorded Plant response rating, Cotton for entry `O=C1COc2cc(F)c(-c3nn4c(c3Br)CCCC4)cc2N1`
[reply] 0

[ask] Give the reported Plant response rating, Cotton for this compound. `C=C(Cl)COc1cc(-c2nn3c(c2Cl)CCCC3)c(F)cc1Cl`
[reply] 1

[ask] Answer with the recorded Plant response rating, Cotton for the compound listed here: C#CC(C)N1C(=O)COc2cc(F)c(-c3nn4c(c3Cl)CCCC4)cc21 (stereo not shown)
[reply] 0

---

Below, each entry is listed with its recorded Plant response rating, Lambsquarter.
- Test system: lambsquarters
- Protocol Description: Test B preemergence/postemergence greenhouse plant response rating 0 to 10
- Assay type: in vivo, Chenopodium album
- Condition Info: PREEMERGENCE, Rate 50 g/ha; 0 to 10 scale
Give only the figure.

Solved cases below.
In [3]: df
Out[3]:
                                   molecule  measured
0  C#CC(C)Oc1cc(-c2nn3c(c2Cl)CCCC3)c(Cl)cc1Cl (stereo not shown) [Compound 74]         9
1  COCOc1cc(-c2nn3c(c2Cl)CCCC3)c(F)cc1Cl [Compound 58]        10
2  COCOc1cc(-c2nn3c(c2Br)CCCC3)c(F)cc1Cl [Compound 65]        10
3  C#CCOC(=O)COc1cc(-c2nn3c(c2Cl)CCCC3)c(F)cc1Cl [Compound 61]         9
4  COc1cc(-c2nn3c(c2Cl)CCCC3)c(F)cc1Cl [Compound 29]        10
5  CCCN1C(=O)COc2cc(F)c(-c3nn4c(c3Br)CCCC4)cc21 [Compound 63]        10
6  Oc1cc(-c2nn3c(c2Cl)CCCC3)c(Cl)cc1Cl [Compound 68]         6
7  C#CC(C)Oc1cc(-c2nn3c(c2Br)CCCC3)c(F)cc1Cl (stereo not shown) [Compound 66]         9

Field: next molecule
[ask] Look up and state reported Plant response rating, Lambsquarter for C=CCOc1cc(-c2nn3c(c2Cl)CCCC3)c(Cl)cc1Cl [Compound 71]
[reply] 10

---

- Tested on: ryegrass
- Protocol Description: Test C preemergence/postemergence greenhouse plant response rating 0 to 100
- Format: in vivo, Lolium multiflorum
- Condition Info: POSTEMERGENCE, 62 g/ha, 0 to 100 scale
// reported Plant response rating Ryegrass per item

Examples from the recorded data:
In [3]: df
Out[3]:
                                   compound                     result_type  measured
0  CCOC(=O)COc1cc(-c2nn3c(c2Cl)CCCC3)c(F)cc1Cl  Plant response rating Ryegrass        30
1  COC(=O)c1cc(-c2nn3c(c2Cl)CCCC3)c(F)cc1Cl  Plant response rating Ryegrass        50
2    Fc1cc(Cl)c(OCCCl)cc1-c1nn2c(c1Cl)CCCC2  Plant response rating Ryegrass        50
3  CCC(C)Oc1cc(-c2nn3c(c2Cl)CCCC3)c(F)cc1Cl (stereo not drawn)  Plant response rating Ryegrass        30
4  C#CC(C)N1C(=O)COc2cc(F)c(-c3nn4c(c3Cl)CCCC4)cc21 (stereo not drawn)  Plant response rating Ryegrass        40

// switching to the query compound
[ask] In one line, give reported Plant response rating Ryegrass of the entry `CC(C)COc1cc(-c2nn3c(c2Cl)CCCC3)c(F)cc1Cl` .
[reply] 60

Hello, the source for this data is patent US6358885B1, in case you need it.
